Data credit: patent US20170342144A1

Quick reference: kd mutant/kd wt of the listed items.
TEST TARGET: T1, human TGFβ3 (human, UniProt P10600 301-412)
T1 sequence: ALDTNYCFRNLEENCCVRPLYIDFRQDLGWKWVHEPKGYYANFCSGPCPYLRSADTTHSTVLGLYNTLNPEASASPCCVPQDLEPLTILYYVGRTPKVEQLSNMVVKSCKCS
PROCEDURE DETAILS: Biacore off-rate vs wt GC1008
Answer with a bare number; do not write a unit.

S30W (antibody, V domains shown, GC1008 IgG4 variant) VH: QVQLVQSGAEVKKPGSSVKVSCKASGYTFWSNVISWVRQAPGQGLEWMGGVIPIVDIANYAQRFKGRVTITADESTSTTYMELSSLRSEDTAVYYCASTLGLVLDAMDYWGQGTLVTVSS VL: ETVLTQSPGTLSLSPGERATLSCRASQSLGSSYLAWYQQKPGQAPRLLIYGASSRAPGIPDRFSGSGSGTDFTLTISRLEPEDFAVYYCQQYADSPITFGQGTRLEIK | 0.3

In plain terms, I54F (antibody, V domains shown, GC1008 IgG4 variant) VH: QVQLVQSGAEVKKPGSSVKVSCKASGYTFSSNVISWVRQAPGQGLEWMGGVIPFVDIANYAQRFKGRVTITADESTSTTYMELSSLRSEDTAVYYCASTLGLVLDAMDYWGQGTLVTVSS VL: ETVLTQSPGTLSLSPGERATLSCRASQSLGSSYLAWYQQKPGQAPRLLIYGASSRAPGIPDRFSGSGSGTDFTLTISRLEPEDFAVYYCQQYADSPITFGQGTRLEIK has a documented kd mutant/kd wt of 1.2
